Provide the reported (IC50 CDK12 high ATP) to (Degradation DC50 CDK12) ratio of each item.
SYSTEM TESTED: CDK12 (nuclear staining in CAL-120 cells) (Homo sapiens, UniProt Q9NYV4)
Construct: endogenous in cells; host or cells: CAL-120 human breast cancer cells (DSMZ ACC 459)
TEST DETAILS: CDK12 nuclear protein level: immunofluorescence/high content analysis (CAL-120)
Type: cell-based
RUN CONDITIONS: ratio of IC50 CDK12 high ATP kinase assay to DC50 CDK12 degradation (IF, CAL-120)
Lab note: write the figure by itself, no unit.

Please give the measured (IC50 CDK12 high ATP) to (Degradation DC50 CDK12) ratio for this compound: Fc1ccc2[nH]c(CNc3nc(N4CCOCC4)nc4c(C5CC5(F)F)cnn34)nc2c1 (single isomer, unassigned) [Example 314]
1171

Please give the measured (IC50 CDK12 high ATP) to (Degradation DC50 CDK12) ratio for this compound: `Fc1cccc2[nH]c(CNc3nc(N4C[C@@H]5C[C@H]4CO5)nc4c(C5CC5)cnn34)nc12`
6199

Please give the measured (IC50 CDK12 high ATP) to (Degradation DC50 CDK12) ratio for this compound: `Cc1ccc2[nH]c(CNc3nc(N4C[C@@H](C)N[C@@H](C)C4)nc4c(Br)cnn34)nc2c1`
14455

Please give the measured (IC50 CDK12 high ATP) to (Degradation DC50 CDK12) ratio for this compound: `Fc1cccc2[nH]c(CNc3nc(N4CCNCC4)nc4c(C5CC5)cnn34)nc12`
2813

Please give the measured (IC50 CDK12 high ATP) to (Degradation DC50 CDK12) ratio for this compound: `Fc1ccc2[nH]c(CNc3nc(N4CCOCC4)nc4c(C5CC5)cnn34)nc2c1`
2179

###

SYSTEM TESTED: CYCLIN K (nuclear staining in CAL-120 cells) (Homo sapiens, UniProt O75909)
Construct: endogenous in cells; host or cells: CAL-120 human breast cancer cells (DSMZ ACC 459)
Sequence (O75909 whole entry): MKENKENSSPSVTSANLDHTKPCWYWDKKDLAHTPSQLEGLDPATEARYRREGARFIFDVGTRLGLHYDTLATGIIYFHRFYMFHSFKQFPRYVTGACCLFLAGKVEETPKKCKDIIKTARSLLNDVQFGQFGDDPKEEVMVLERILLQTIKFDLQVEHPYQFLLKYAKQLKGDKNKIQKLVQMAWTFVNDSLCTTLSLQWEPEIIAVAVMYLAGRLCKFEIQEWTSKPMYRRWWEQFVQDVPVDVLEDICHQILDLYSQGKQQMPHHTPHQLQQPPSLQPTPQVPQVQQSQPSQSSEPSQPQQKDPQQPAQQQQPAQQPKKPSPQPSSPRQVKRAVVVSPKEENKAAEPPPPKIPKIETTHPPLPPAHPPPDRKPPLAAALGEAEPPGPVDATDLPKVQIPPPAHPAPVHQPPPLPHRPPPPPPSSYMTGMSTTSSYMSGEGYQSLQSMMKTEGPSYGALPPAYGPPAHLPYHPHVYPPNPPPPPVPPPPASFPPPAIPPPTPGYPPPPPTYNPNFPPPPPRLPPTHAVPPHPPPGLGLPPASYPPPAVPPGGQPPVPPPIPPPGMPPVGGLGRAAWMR
Sequence (Q9NYV4 whole entry partner): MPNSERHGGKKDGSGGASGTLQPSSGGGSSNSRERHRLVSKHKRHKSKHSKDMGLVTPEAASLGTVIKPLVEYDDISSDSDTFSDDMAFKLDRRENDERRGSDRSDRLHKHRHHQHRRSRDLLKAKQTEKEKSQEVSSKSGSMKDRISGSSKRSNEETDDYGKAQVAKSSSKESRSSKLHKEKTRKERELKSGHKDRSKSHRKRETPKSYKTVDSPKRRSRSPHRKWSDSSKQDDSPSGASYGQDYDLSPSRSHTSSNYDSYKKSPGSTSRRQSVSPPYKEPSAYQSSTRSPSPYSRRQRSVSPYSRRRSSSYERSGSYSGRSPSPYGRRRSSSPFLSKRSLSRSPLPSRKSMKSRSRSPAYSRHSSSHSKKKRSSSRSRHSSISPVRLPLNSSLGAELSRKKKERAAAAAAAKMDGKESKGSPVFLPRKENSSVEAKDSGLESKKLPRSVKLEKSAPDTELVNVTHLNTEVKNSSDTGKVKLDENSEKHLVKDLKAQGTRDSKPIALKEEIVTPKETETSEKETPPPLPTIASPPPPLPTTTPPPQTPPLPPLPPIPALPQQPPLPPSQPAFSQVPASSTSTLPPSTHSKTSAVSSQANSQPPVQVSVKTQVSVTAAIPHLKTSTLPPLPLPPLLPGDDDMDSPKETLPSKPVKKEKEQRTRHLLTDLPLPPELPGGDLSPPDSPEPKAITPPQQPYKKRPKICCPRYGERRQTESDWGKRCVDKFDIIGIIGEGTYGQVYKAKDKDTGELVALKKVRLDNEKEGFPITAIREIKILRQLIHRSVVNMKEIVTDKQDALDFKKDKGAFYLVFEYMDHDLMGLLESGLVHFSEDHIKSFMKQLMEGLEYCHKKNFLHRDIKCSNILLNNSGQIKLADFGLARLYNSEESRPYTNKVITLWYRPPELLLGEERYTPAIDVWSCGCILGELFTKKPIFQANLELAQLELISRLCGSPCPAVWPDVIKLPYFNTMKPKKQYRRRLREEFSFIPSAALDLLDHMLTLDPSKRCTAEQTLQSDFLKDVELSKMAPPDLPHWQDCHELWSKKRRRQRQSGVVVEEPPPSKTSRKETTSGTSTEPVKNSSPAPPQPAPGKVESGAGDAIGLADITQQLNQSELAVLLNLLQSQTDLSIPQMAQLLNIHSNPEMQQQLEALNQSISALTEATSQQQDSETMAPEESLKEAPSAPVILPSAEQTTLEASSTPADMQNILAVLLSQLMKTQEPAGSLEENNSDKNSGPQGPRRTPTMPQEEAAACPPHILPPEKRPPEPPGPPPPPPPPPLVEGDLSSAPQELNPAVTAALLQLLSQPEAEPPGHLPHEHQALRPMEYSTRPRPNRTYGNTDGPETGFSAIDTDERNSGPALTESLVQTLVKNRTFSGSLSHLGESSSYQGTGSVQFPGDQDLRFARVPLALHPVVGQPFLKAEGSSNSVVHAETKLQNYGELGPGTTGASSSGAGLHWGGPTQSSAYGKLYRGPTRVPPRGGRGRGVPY
TEST DETAILS: CYCLIN K nuclear protein level: immunofluorescence high content analysis (CAL-120)
Type: cell-based
RUN CONDITIONS: 24 h, 50% reduction of nuclear CCNK staining intensity, median, read-out: CYCLIN K degradation IF, DC50-[mol/l] (median)
Assign classes using reported DC50 values and the ranges LOW = under 0.5 nM, MEDIUM = from 0.5 nM up to 1 nM, HIGH = 1 nM and over, please.

Which category fits this record: `CC1(N)CCN(c2nc(NCc3nc4ccccc4[nH]3)n3ncc(Br)c3n2)CC1`
HIGH

Which category fits this record: `CN1C[C@@H]2C[C@H]1CN2c1nc(NCc2nc3ccccc3[nH]2)n2ncc(Br)c2n1`
HIGH

Which category fits this record: `N#Cc1cccc(-c2c[nH]c(CNc3nc(N4CCOCC4)nc4c(Br)cnn34)n2)c1`
MEDIUM

Which category fits this record: `N[C@@H]1CCN(c2nc(NCc3nc4ccccc4[nH]3)n3ncc(Br)c3n2)C1`
LOW

Which category fits this record: `C[C@@H]1CN(c2nc(NCc3nc4ccccc4[nH]3)n3ncc(Br)c3n2)C[C@H](C)N1C`
HIGH

Which category fits this record: `OC[C@@H]1CCCCN1c1nc(NCc2nc3cc(F)ccc3[nH]2)n2ncc(C3CC3)c2n1`
LOW

Which category fits this record: `C[C@@H]1CN(c2nc(NCc3nc4c(F)cccc4[nH]3)n3ncc(Br)c3n2)C[C@H](C)O1`
LOW

Which category fits this record: `CNC1CCN(c2nc(NCc3nc4ccccc4[nH]3)n3ncc(Br)c3n2)CC1`
HIGH

Which category fits this record: `CN[C@@H]1CCN(c2nc(NCc3nc4ccccc4[nH]3)n3ncc(Br)c3n2)C1`
HIGH

Which category fits this record: `CN1CCN(c2nc(NCc3nc4c(F)c(Cl)ccc4[nH]3)n3ncc(Br)c3n2)CC1`
LOW

Which category fits this record: `Brc1cnn2c(NCc3nc4ccccc4[nH]3)nc(N3CCN4CCC3CC4)nc12`
MEDIUM

Which category fits this record: `Cc1ccc2[nH]c(CNc3nc(N4CCNCC4)nc4c(Br)cnn34)nc2c1`
LOW

Which category fits this record: `COc1cccc2[nH]c(CNc3nc(N4C[C@@H](C)N[C@@H](C)C4)nc4c(C5CC5)cnn34)nc12`
LOW

Which category fits this record: `Fc1cc2nc(CNc3nc(N4CC5CCC(C4)N5)nc4c(Br)cnn34)[nH]c2cc1F`
LOW

Which category fits this record: `CCNC1CCN(c2nc(NCc3nc4ccccc4[nH]3)n3ncc(Br)c3n2)CC1`
HIGH

Which category fits this record: `Brc1cnn2c(NCc3nc4ccccc4[nH]3)nc(N3C[C@@H]4C[C@H]3CO4)nc12`
MEDIUM

Which category fits this record: `CCNc1nc(NCc2nc3ccccc3[nH]2)n2ncc(Br)c2n1`
HIGH
